Measurement notes: Pharmacokinetics after oral administration
Assay type: in vivo, cynomolgus monkey
Conditions: male, cynomolgus monkey, plasma; 1.35 mg/kg oral, calcium salt hydrate crystal (Sample 162a) suspension, n=2
Property: Cmax (ng/mL)

[[record]]
molecule_smiles = "Cc1cc(-n2nc3c(c2-n2ccn(-c4ccc5c(cnn5C)c4F)c2=O)[C@H](C)N(C(=O)c2cc4cc([C@H]5CCOC(C)(C)C5)ccc4n2[C@@]2(c4noc(=O)[nH]4)C[C@@H]2C)CC3)cc(C)c1F"
property = "Cmax"
result = 148


###

Tested system: human GLP1R (Homo sapiens (Human), UniProt P43220)
Sequence (P43220 24-463): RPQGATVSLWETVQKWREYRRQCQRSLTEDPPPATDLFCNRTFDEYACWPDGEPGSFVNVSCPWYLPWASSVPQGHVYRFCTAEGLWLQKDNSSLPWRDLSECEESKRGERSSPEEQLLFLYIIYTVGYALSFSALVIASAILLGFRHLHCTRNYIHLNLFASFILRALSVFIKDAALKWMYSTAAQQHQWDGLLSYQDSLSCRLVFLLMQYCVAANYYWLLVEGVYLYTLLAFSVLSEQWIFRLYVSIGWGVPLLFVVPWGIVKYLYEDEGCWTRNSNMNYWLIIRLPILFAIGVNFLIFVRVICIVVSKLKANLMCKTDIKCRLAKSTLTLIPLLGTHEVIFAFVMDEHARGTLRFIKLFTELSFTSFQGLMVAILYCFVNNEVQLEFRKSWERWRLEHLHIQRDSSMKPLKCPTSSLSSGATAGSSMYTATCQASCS
Measurement notes: In vitro cAMP signal activation in human GLP1R stably-expressing cell line (hGLP1R-HEK293)
Conditions: cAMP concentration in hGLP1R-HEK293; 100% = 1 nM human GLP-1 (7-37)
pEC50: −log10 of the molar value.
Recorded pEC50 values for a group of compounds are listed next.
Property: pEC50

[[record]]
compound = "COCCn1c(=O)n(C)c2cc(-n3ccn(-c4c5c(nn4-c4cc(C)c(F)c(C)c4)CCN(C(=O)c4cc6cc(C7CCOC(C)(C)C7)ccc6n4[C@@]4(c6noc(=O)[nH]6)C[C@@H]4C)[C@H]5C)c3=O)ccc21 (stereo in doubt)"
property = "pEC50"
result = 8.80

[[record]]
compound = "Cc1cc(-n2nc3c(c2-n2ccn(-c4ccc5c(cnn5C)c4)c2=O)[C@H](C)N(C(=O)c2cc4cc([C@H]5CCO[C@@H](C)C5)ccc4n2[C@@]2(c4noc(=O)[nH]4)C[C@@H]2C)CC3)cc(C)c1F"
property = "pEC50"
result = 8.80

[[record]]
compound = "COCCn1ncc2cc(-n3ccn(-c4c5c(nn4-c4cc(C)c(F)c(C)c4)CCN(C(=O)c4cc6cc([C@H]7CCOC(C)(C)C7)ccc6n4[C@@]4(c6noc(=O)[nH]6)C[C@@H]4C)[C@H]5C)c3=O)c(F)cc21"
property = "pEC50"
result = 8.89

[[record]]
compound = "Cc1cc(-n2nc3c(c2-n2ccn(-c4ccc5c(cnn5[C@H]5CCOC5)c4F)c2=O)[C@H](C)N(C(=O)c2cc4cc([C@H]5CCOC(C)(C)C5)ccc4n2[C@@]2(c4noc(=O)[nH]4)C[C@@H]2C)CC3)cc(C)c1F"
property = "pEC50"
result = 8.66


###

Measurement notes: Pharmacokinetics after oral administration
Assay type: in vivo, cynomolgus monkey
Conditions: male, cynomolgus monkey, plasma; 1.35 mg/kg oral, calcium salt hydrate crystal (Sample 162a) suspension, n=2
Property: Tmax (h)

[[record]]
molecule_smiles = "Cc1cc(-n2nc3c(c2-n2ccn(-c4ccc5c(cnn5C)c4F)c2=O)[C@H](C)N(C(=O)c2cc4cc([C@H]5CCOC(C)(C)C5)ccc4n2[C@@]2(c4noc(=O)[nH]4)C[C@@H]2C)CC3)cc(C)c1F"
property = "Tmax"
display_unit = "h"
result = 2


###

Recorded pEC50 values for a group of compounds are listed next.
Tested system: human GLP1R (Homo sapiens (Human), UniProt P43220)
Measurement notes: In vitro cAMP signal activation in human GLP1R stably-expressing cell line (hGLP1R-HEK293)
Conditions: cAMP concentration in hGLP1R-HEK293; 100% = 1 nM human GLP-1 (7-37)
pEC50: −log10 of the molar value.
Property: pEC50

[[record]]
compound = "Cc1cc(-n2ccn(-c3c4c(nn3-c3cc(C)c(F)c(C)c3)CCN(C(=O)c3cc5cc(C6CCOCC6)ccc5n3[C@@]3(c5noc(=O)[nH]5)C[C@@H]3C)[C@H]4C)c2=O)ccc1OCCO [Example 19]"
tested_system = "human GLP1R (Homo sapiens (Human), UniProt P43220)"
result = 8.89

[[record]]
compound = "Cc1cc(-n2nc3c(c2-n2ccn(-c4ccc5c(cnn5C)c4Cl)c2=O)[C@H](C)N(C(=O)c2cc4cc([C@H]5CCOC(C)(C)C5)ccc4n2[C@@]2(c4noc(=O)[nH]4)C[C@@H]2C)CC3)ccc1F [Example 49]"
tested_system = "human GLP1R (Homo sapiens (Human), UniProt P43220)"
result = 8.42

[[record]]
compound = "COCCn1ncc2cc(-n3ccn(-c4c5c(nn4-c4cc(C)c(F)c(C)c4)CCN(C(=O)c4cc6cc([C@H]7CCOC(C)(C)C7)ccc6n4[C@@]4(c6noc(=O)[nH]6)C[C@@H]4C)[C@H]5C)c3=O)ccc21 [Example 31]"
tested_system = "human GLP1R (Homo sapiens (Human), UniProt P43220)"
result = 9.13

[[record]]
compound = "COc1nccc(-c2ccc3c(c2)cc(C(=O)N2CCc4nn(-c5cc(C)c(F)c(C)c5)c(-n5ccn(-c6ccc7c(cnn7CC(C)(C)O)c6)c5=O)c4[C@@H]2C)n3[C@@]2(c3noc(=O)[nH]3)C[C@@H]2C)c1C [Example 13]"
tested_system = "human GLP1R (Homo sapiens (Human), UniProt P43220)"
result = 8.43

